- Experimental system: Lyn (Homo sapiens)
- Sequence (P07948 whole entry, species assumed): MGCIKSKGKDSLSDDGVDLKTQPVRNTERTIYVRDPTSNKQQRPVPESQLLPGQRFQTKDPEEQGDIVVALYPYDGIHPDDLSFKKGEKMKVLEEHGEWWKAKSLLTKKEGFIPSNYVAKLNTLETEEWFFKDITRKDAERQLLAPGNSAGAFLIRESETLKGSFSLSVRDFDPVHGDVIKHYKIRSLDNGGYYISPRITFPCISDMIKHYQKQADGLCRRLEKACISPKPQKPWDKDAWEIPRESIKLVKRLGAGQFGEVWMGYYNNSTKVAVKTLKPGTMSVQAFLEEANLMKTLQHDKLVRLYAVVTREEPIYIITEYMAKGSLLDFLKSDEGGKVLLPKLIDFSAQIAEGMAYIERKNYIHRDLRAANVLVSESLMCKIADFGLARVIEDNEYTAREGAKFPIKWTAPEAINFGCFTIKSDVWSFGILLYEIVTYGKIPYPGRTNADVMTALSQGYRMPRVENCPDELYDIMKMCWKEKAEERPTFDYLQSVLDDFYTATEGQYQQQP
Assay metric: pIC50
Scale note: pIC50 = -log10(concentration in M).

Please list pIC50 recorded for the compound "Cc1cc(-c2cc(O)ccc2Cl)cc2nnc(Nc3ccc(OCCN4CCCC4)cc3)nc12"
9.40
